// values below are reported Growth inhibition rate (%) redroot pigweed
Tested on: redroot pigweed (Amaranthus retroflexus L.)
test: Test Example 1: foliar treatment, growth inhibition rate, redroot pigweed
Format: in vivo
assay conditions: 31 g/ha active ingredient, visually observed 17th to 23rd day after application
Description: Upland field soil was put into a 1/170,000 hectare pot, and seeds of various plants were sown. […]
property: Growth inhibition rate (%) redroot pigweed

- compound: "CCOC(=O)c1c(S(C)(=O)=O)ccc(C(=O)c2cnn(CC)c2OC(=O)SCC)c1C"
  endpoint unit: "%"
  readout number: 100
- compound: "CCC(C)SC(=O)Oc1c(C(=O)c2ccc(S(C)(=O)=O)c(C(=O)OC)c2C)cnn1CC (centres unmarked)"
  endpoint unit: "%"
  readout number: 90
- compound: "CCSC(=O)Oc1c(C(=O)c2ccc(S(C)(=O)=O)c(COC)c2C)cnn1C"
  endpoint unit: "%"
  readout number: 95
- compound: "COC(=O)c1c(S(C)(=O)=O)ccc(C(=O)c2cnn(C)c2OC(=O)SC)c1Cl"
  endpoint unit: "%"
  readout number: 70
- compound: "CCSC(=O)Oc1c(C(=O)c2ccc(S(C)(=O)=O)c(OCC3CCCO3)c2C)cnn1C (centres unmarked)"
  endpoint unit: "%"
  readout number: 90
- compound: "CCSC(=O)Oc1c(C(=O)c2ccc(S(C)(=O)=O)c(OCCCOC)c2C)cnn1C"
  endpoint unit: "%"
  readout number: 100
- compound: "CCSC(=O)Oc1c(C(=O)c2ccc(S(C)(=O)=O)c(OC(C)C)c2C)cnn1C"
  endpoint unit: "%"
  readout number: 100
- compound: "CCSC(=O)Oc1c(C(=O)c2ccc(S(C)(=O)=O)c(OC3CCOC3)c2C)cnn1C (centres unmarked)"
  endpoint unit: "%"
  readout number: 100
- compound: "CCSC(=O)Oc1c(C(=O)c2ccc(S(C)(=O)=O)c(OCCSC)c2C)cnn1C"
  endpoint unit: "%"
  readout number: 10
- compound: "CCSC(=O)Oc1c(C(=O)c2ccc(S(C)(=O)=O)c(OCCCl)c2C)cnn1C"
  endpoint unit: "%"
  readout number: 60
- compound: "CCCSC(=O)Oc1c(C(=O)c2ccc(S(C)(=O)=O)c(OCCOC)c2C)cnn1CC"
  endpoint unit: "%"
  readout number: 100
- compound: "CCSC(=O)Oc1c(C(=O)c2ccc(S(C)(=O)=O)c(CCOC)c2C)cnn1C"
  endpoint unit: "%"
  readout number: 100
- compound: "CCOc1c(S(C)(=O)=O)ccc(C(=O)c2cnn(C)c2OC(=O)SCC)c1C"
  endpoint unit: "%"
  readout number: 100
- compound: "CCCOc1c(S(C)(=O)=O)ccc(C(=O)c2cnn(C)c2OC(=O)SCC)c1C"
  endpoint unit: "%"
  readout number: 95
- compound: "COCCOc1c(S(C)(=O)=O)ccc(C(=O)c2cnn(C)c2OC(=O)SC(C)(C)C)c1C"
  endpoint unit: "%"
  readout number: 100
- compound: "CCCSC(=O)Oc1c(C(=O)c2ccc(S(C)(=O)=O)c(C(=O)OC)c2C)cnn1CC"
  endpoint unit: "%"
  readout number: 95
- compound: "CCOC(=O)c1c(S(C)(=O)=O)ccc(C(=O)c2cnn(CC)c2OC(=O)SCC)c1Cl"
  endpoint unit: "%"
  readout number: 80

* * *

Test system: redroot pigweed (Amaranthus retroflexus L.)
test: Test Example 1: foliar treatment, growth inhibition rate, redroot pigweed
Type: in vivo
assay conditions: 31 g/ha active ingredient, visually observed 17th to 23rd day after application
// values below are reported Growth inhibition rate (%) redroot pigweed
property: Growth inhibition rate (%) redroot pigweed

- compound: "CCSC(=O)Oc1c(C(=O)c2ccc(S(C)(=O)=O)c(OCC(F)(F)F)c2C)cnn1C [compound 79]"
  endpoint unit: "%"
  readout number: 100
- compound: "CCSC(=O)Oc1c(C(=O)c2ccc(S(C)(=O)=O)c(COC)c2Cl)cnn1C [compound 42]"
  endpoint unit: "%"
  readout number: 100
- compound: "CCSC(=O)Oc1c(C(=O)c2ccc(S(C)(=O)=O)c(OCCOC)c2Cl)cnn1C [compound 216]"
  endpoint unit: "%"
  readout number: 100
- compound: "CCCCCCCc1c(S(C)(=O)=O)ccc(C(=O)c2cnn(C)c2OC(=O)SCC)c1C [compound 225]"
  endpoint unit: "%"
  readout number: 0

* * *

// values below are reported Growth inhibition rate (%) Wheat
System: wheat
test: Test Example 2: soil application on the day after sowing, growth inhibition rate, wheat
Format: in vivo, Triticum spp.
assay conditions: 250 g/ha active ingredient, observed on 19th to 24th day
property: Growth inhibition rate (%) Wheat

- compound: "CCSC(=O)Oc1c(C(=O)c2ccc(S(C)(=O)=O)c(OCCOC)c2Cl)cnn1C [compound 216]"
  readout number: 0
- compound: "CCSC(=O)Oc1c(C(=O)c2ccc(S(C)(=O)=O)c(C(=O)SC)c2Cl)cnn1C [compound 31]"
  readout number: 0
- compound: "CCn1ncc(C(=O)c2ccc(S(C)(=O)=O)c(OCCOC)c2C)c1OC(=O)SC(C)C [compound 208]"
  readout number: 0
- compound: "CCCOc1c(S(C)(=O)=O)ccc(C(=O)c2cnn(CC)c2OC(=O)SCC)c1C [compound 67]"
  readout number: 0
- compound: "CCOC(=O)c1c(S(C)(=O)=O)ccc(C(=O)c2cnn(CC)c2OC(=O)SCC)c1Cl [compound 59]"
  readout number: 10
- compound: "CCSC(=O)Oc1c(C(=O)c2ccc(S(C)(=O)=O)c(CC(=O)OC)c2C)cnn1C [compound 64]"
  readout number: 0
- compound: "CCSC(=O)Oc1c(C(=O)c2ccc(S(C)(=O)=O)c(OCC3CCCCO3)c2C)cnn1C (stereo not shown) [compound 215]"
  readout number: 0
- compound: "CCOC(=O)c1c(S(C)(=O)=O)ccc(C(=O)c2cnn(CC)c2OC(=O)SC)c1C [compound 62]"
  readout number: 30
- compound: "C#CCOc1c(S(C)(=O)=O)ccc(C(=O)c2cnn(C)c2OC(=O)SCC)c1C [compound 222]"
  readout number: 0
- compound: "CCSC(=O)Oc1c(C(=O)c2ccc(S(C)(=O)=O)c(OCC3CCCO3)c2C)cnn1C (stereo not shown) [compound 211]"
  readout number: 0
- compound: "CCSC(=O)Oc1c(C(=O)c2ccc(C(F)(F)F)cc2S(C)(=O)=O)cnn1CC [compound 68]"
  readout number: 0
- compound: "C=CCSC(=O)Oc1c(C(=O)c2ccc(S(C)(=O)=O)c(C(=O)OC)c2C)cnn1CC [compound 99]"
  readout number: 0
- compound: "CCSC(=O)Oc1c(C(=O)c2ccc(S(C)(=O)=O)c(OC)c2Cl)cnn1C [compound 214]"
  readout number: 0
- compound: "COC(=O)c1c(S(C)(=O)=O)ccc(C(=O)c2cnn(C)c2OC(=O)SC)c1Cl [compound 29]"
  readout number: 0
- compound: "CCOc1c(S(C)(=O)=O)ccc(C(=O)c2cnn(C)c2OC(=O)SCC)c1C [compound 36]"
  readout number: 0
- compound: "CCCSC(=O)Oc1c(C(=O)c2ccc(S(C)(=O)=O)c(OCCOC)c2C)cnn1C [compound 219]"
  readout number: 0
- compound: "CCSC(=O)Oc1c(C(=O)c2ccc(S(C)(=O)=O)c(OCCC3OCCO3)c2Cl)cnn1CC [compound 221]"
  readout number: 0
- compound: "CCSC(=O)Oc1c(C(=O)c2ccc(S(C)(=O)=O)c(OC3CCOC3)c2C)cnn1C (stereo not shown) [compound 217]"
  readout number: 0
- compound: "CCSC(=O)Oc1c(C(=O)c2ccc(S(C)(=O)=O)c(CN(C)CC#N)c2C)cnn1C [compound 210]"
  readout number: 0
- compound: "CCCSC(=O)Oc1c(C(=O)c2ccc(S(C)(=O)=O)c(C(=O)OC)c2C)cnn1C [compound 84]"
  readout number: 0
- compound: "CCn1ncc(C(=O)c2ccc(S(C)(=O)=O)c(C(=O)OC)c2C)c1OC(=O)SC [compound 4]"
  readout number: 0
- compound: "CSC(=O)Oc1c(C(=O)c2ccc(S(C)(=O)=O)c(C3=NOCC3)c2C)cnn1C [compound 40]"
  readout number: 10
- compound: "CCSC(=O)Oc1c(C(=O)c2ccc(S(C)(=O)=O)c(COC3CCOC3)c2C)cnn1C (stereo not shown) [compound 223]"
  readout number: 0
- compound: "CCn1ncc(C(=O)c2ccc(S(C)(=O)=O)c(C(=O)OC)c2Cl)c1OC(=O)SC [compound 97]"
  readout number: 0
- compound: "CCCCCCCc1c(S(C)(=O)=O)ccc(C(=O)c2cnn(C)c2OC(=O)SCC)c1C [compound 225]"
  readout number: 0

* * *

Test system: redroot pigweed (Amaranthus retroflexus L.)
test: Test Example 1: foliar treatment, growth inhibition rate, redroot pigweed
Assay type: in vivo
assay conditions: 31 g/ha active ingredient, visually observed 17th to 23rd day after application
property: Growth inhibition rate (%) redroot pigweed

- compound: "CCSC(=O)Oc1c(C(=O)c2ccc(S(C)(=O)=O)c(COC3CCOC3)c2C)cnn1C (stereo not shown) [compound 223]"
  system tested: "redroot pigweed (Amaranthus retroflexus L.)"
  readout number: 90
- compound: "CCSC(=O)Oc1c(C(=O)c2ccc(S(C)(=O)=O)c(C3=NOCC3)c2C)cnn1C [Compound No. 39]"
  system tested: "redroot pigweed (Amaranthus retroflexus L.)"
  readout number: 80
- compound: "CCSC(=O)Oc1c(C(=O)c2ccc(S(C)(=O)=O)c(OC)c2C)cnn1C [Compound No. 35]"
  system tested: "redroot pigweed (Amaranthus retroflexus L.)"
  readout number: 90
- compound: "CCC(C)SC(=O)Oc1c(C(=O)c2ccc(S(C)(=O)=O)c(C(=O)OC)c2C)cnn1C (stereo not shown) [compound 88]"
  system tested: "redroot pigweed (Amaranthus retroflexus L.)"
  readout number: 95
